ASSAY_METHOD_TEXT: Level of inclusion of hydrophobic active ingredients in micelles, determined by reverse-phase HPLC
ASSAY_SETUP: polymerised micelles at 10 mg/ml, 50° C. 12 hours; molar ratio medicament/(medicament + amphiphilic II-4) × 100
Exercise: state measured Molar level of inclusion for each of the compounds provided.
Report the figure in % without appending any unit label.

c1cc2ccc3cccc4ccc(c1)c2c34 [Pyrene, pyrene, reference compound] yielded Molar level of inclusion of 63

CC(=O)O[C@H]1C(=O)[C@@]2(C)[C@H]([C@H](OC(=O)c3ccccc3)[C@]3(O)C[C@H](OC(=O)[C@H](O)[C@@H](NC(=O)c4ccccc4)c4ccccc4)C(C)=C1C3(C)C)[C@]1(OC(C)=O)CO[C@@H]1C[C@@H]2O [Paclitaxel, paclitaxel, reference compound] yielded Molar level of inclusion of 25

CCC1(O)C(=O)Cc2c1cc1n(c2=O)Cc2c-1nc1cc3c(cc1c2C1CCC1)OCO3 (stereo not shown) yielded Molar level of inclusion of 56

"CN(C)CC[C@H](CSc1ccccc1)Nc1ccc(S(=O)(=O)NC(=O)c2ccc3c(c2)CC[C@@H]2CN(Cc4ccccc4-c4ccc(Cl)cc4)CCN32)cc1[N+](=O)[O-]" yielded Molar level of inclusion of 36
